pKi: −log10 of the molar value.
The listing below reports pKi for compounds tested on mouse DOR-1 (Mus musculus).
Sequence (P32300 whole entry): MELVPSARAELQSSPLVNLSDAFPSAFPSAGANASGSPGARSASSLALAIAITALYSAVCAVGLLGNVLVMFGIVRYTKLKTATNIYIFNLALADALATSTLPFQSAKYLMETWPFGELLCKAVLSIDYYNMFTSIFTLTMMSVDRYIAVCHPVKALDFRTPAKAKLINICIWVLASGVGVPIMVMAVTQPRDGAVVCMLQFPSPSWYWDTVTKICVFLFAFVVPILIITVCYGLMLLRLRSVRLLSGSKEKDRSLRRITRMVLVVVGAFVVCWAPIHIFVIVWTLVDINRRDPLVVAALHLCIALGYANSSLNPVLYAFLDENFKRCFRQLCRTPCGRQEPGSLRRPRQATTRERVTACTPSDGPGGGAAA

| compound | pKi |
| --- | --- |
| O=C(N[C@@H]1C=C[C@H]2[C@H]3Cc4ccc(O)c5c4[C@@]2(CCN3CCc2ccccc2)[C@H]1O5)c1cccc(I)c1 | 9.89 |
| O=C(N[C@@H]1CC[C@@]2(O)[C@H]3Cc4ccc(O)c5c4[C@@]2(CCN3CC2CC2)[C@H]1O5)c1cccc(I)c1 [Compound 1, 3-Iodobenzoyl-β-naltrexamine, reference compound] | 9.62 |
| C=CCN1CC[C@]23c4c5ccc(O)c4O[C@H]2[C@H](NC(=O)c2cccc(I)c2)C=C[C@H]3[C@H]1C5 | 9.41 |
| CN1CC[C@]23c4c5ccc(O)c4O[C@H]2[C@H](NC(=O)c2cccc(I)c2)C=C[C@H]3[C@H]1C5 | 9.06 |
| COc1ccc2c3c1O[C@H]1[C@H](NC(=O)c4cccc(I)c4)C=C[C@H]4[C@@H](C2)N(C)CC[C@@]341 | 7.31 |
| O=C(N[C@@H]1C=C[C@H]2[C@H]3Cc4ccc(O)c5c4[C@@]2(CCN3CC2CC2)[C@H]1O5)c1cccc(I)c1 | 10.10 |

====

- target desc: mouse MOR-1 (Mus musculus, UniProt P42866)
- Sequence (P42866 whole entry): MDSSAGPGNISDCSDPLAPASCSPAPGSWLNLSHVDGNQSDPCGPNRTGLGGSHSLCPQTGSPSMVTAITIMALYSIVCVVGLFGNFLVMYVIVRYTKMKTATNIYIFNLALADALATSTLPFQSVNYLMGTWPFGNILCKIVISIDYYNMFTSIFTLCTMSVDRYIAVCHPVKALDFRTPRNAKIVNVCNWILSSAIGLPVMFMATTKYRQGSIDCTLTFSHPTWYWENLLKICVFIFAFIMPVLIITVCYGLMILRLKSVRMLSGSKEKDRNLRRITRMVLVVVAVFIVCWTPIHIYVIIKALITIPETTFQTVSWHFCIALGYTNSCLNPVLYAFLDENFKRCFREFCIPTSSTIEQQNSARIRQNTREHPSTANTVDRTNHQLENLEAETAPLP
Strictly below 0.1 nM in Ki: 1. Otherwise: 0.

| compound | assigned category |
| --- | --- |
| O=C(N[C@@H]1CC[C@@]2(O)[C@H]3Cc4ccc(O)c5c4[C@@]2(CCN3CC2CC2)[C@H]1O5)c1cccc(I)c1 [Compound 1, 3-Iodobenzoyl-β-naltrexamine, reference compound] | 0 |
| O=C(N[C@@H]1C=C[C@H]2[C@H]3Cc4ccc(O)c5c4[C@@]2(CCN3CCc2ccccc2)[C@H]1O5)c1cccc(I)c1 | 1 |
| COc1ccc2c3c1O[C@H]1[C@H](NC(=O)c4cccc(I)c4)C=C[C@H]4[C@@H](C2)N(C)CC[C@@]341 | 0 |
| O=C(N[C@@H]1C=C[C@H]2[C@H]3Cc4ccc(O)c5c4[C@@]2(CCN3CC2CC2)[C@H]1O5)c1cccc(I)c1 | 1 |
| C=CCN1CC[C@]23c4c5ccc(O)c4O[C@H]2[C@H](NC(=O)c2cccc(I)c2)C=C[C@H]3[C@H]1C5 | 1 |
| CN1CC[C@]23c4c5ccc(O)c4O[C@H]2[C@H](NC(=O)c2cccc(I)c2)C=C[C@H]3[C@H]1C5 | 1 |
